Tested On: ERα (Homo sapiens)
Procedure Text: Degradation of ERα in T-47D cells (immunoblotting, 4 h)
Format: cell-based
Set-up: host or cells: T-47D
Test Parameters: 10nM compound
Property Name: Degradation rate (%) of ERα in T-47D cells

These solved cases illustrate the format of a correct answer.
| Molecule | Result Value |
| --- | --- |
| C[C@@H]1C[C@H](N2CCC3(CC2)COc2c3ccc3c2CN(C2CCC(=O)NC2=O)C3=O)CCN1C1CC2(CCN(c3ccc([C@@H]4c5ccc(O)cc5CC[C@@H]4c4ccccc4)cc3)CC2)C1 (stereo partly drawn) [H30] | 74 |
| O=C1CCC(N2Cc3c(ccc4c3OCC43CCN(C[C@H]4CC[C@@H](OC5CCN(c6ccc([C@@H]7c8ccc(O)cc8CC[C@@H]7c7ccccc7)cc6)CC5)CC4)CC3)C2=O)C(=O)N1 (stereo partly drawn) [G25] | 79 |
| CCN(C(=O)CN1CCC2(CC1)COc1c2ccc2c1CN(C1CCC(=O)NC1=O)C2=O)C1CC2(CCN(c3ccc([C@@H]4c5ccc(O)cc5CC[C@@H]4c4ccccc4)cc3)CC2)C1 (stereo partly drawn) [H55] | 83 |
| O=C1CCC(N2Cc3c(ccc4c3OCC43CCN(C(=O)C4CCN(C(=O)C5CCN(c6ccc([C@@H]7c8ccc(O)cc8CC[C@@H]7c7ccccc7)cc6)CC5)CC4)CC3)C2=O)C(=O)N1 (stereo partly drawn) [K36] | 76 |
| O=C1CCC(N2Cc3c(ccc4c3OCC43CCN(C(=O)CN4CCC5(CC4)CCN(c4ccc([C@@H]6c7ccc(O)cc7CC[C@@H]6c6ccccc6)cc4)C5)CC3)C2=O)C(=O)N1 (stereo partly drawn) [A75] | 76 |
| C[C@@H]1Cc2c([nH]c3ccccc23)[C@@H](c2c(F)cc(N3CCC4(CCN(C(=O)CN5CCC6(CC5)COc5c6ccc6c5CN(C5CCC(=O)NC5=O)C6=O)CC4)CC3)cc2F)N1CC(F)F (stereo partly drawn) [A118] | 79 |

(P) O=C1CCC(N2Cc3c(ccc4c3OCC43CCN(CCN4CCC5(CC4)CCN(c4ccc([C@@H]6c7ccc(O)cc7CC[C@@H]6c6ccccc6)cc4)CC5)CC3)C2=O)C(=O)N1 (stereo partly drawn) [A71]
(Q) O=C1CCC(N2Cc3cc4c(cc3C2=O)OC2(CC4)CN(C3CCN(C(=O)c4ccc([C@@H]5c6ccc(O)cc6CC[C@@H]5c5ccccc5)cc4)CC3)C2)C(=O)N1 (stereo partly drawn) [H11]
Endpoint returns whichever of P and Q has the numerically higher Degradation rate (%) of ERα in T-47D cells. Please identify the chosen entry by its label.
P

* * *

Tested On: ERα (Homo sapiens, UniProt P03372)
Sequence (P03372 whole entry): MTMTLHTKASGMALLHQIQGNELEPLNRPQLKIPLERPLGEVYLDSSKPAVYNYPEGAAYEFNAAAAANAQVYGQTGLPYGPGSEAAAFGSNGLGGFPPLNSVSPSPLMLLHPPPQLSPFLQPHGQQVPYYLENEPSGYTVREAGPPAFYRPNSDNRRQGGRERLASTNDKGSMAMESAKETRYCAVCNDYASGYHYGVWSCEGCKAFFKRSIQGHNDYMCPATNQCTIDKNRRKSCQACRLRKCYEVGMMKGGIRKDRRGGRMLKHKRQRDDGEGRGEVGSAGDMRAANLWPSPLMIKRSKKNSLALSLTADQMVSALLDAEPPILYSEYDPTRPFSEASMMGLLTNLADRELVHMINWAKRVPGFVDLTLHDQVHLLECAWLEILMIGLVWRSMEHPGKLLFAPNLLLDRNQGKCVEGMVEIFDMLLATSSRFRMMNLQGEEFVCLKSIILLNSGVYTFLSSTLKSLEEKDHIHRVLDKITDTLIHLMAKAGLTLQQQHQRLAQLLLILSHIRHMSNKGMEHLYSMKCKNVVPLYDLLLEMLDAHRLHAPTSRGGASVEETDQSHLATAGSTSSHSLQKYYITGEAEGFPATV
Procedure Text: Degradation of ERα in MCF-7 cells (immunoblotting, 4 h)
Type: cell-based
Test Parameters: 1nM compound
Property Name: Degradation rate (%) of ERα in MCF-7 cells

Below: 4 compounds and their reported Degradation rate (%) of ERα in MCF-7 cells.
| Compound | Result Value |
| --- | --- |
| O=C1CCC(N2Cc3cc4c(cc3C2=O)OC2(CC4)CCN(CC3CCC4(CC3)CCN(c3ccc([C@@H]5c6ccc(O)cc6CC[C@@H]5c5ccccc5)cc3)CC4)CC2)C(=O)N1 (stereo partly drawn) | 15 |
| C[C@@H]1Cc2c([nH]c3ccccc23)[C@@H](c2c(F)cc(N3CCC4(CCN(C(=O)CN5CCC6(CC5)COc5c6ccc6c5CN(C5CCC(=O)NC5=O)C6=O)C4)CC3)cc2F)N1CC(F)F (stereo partly drawn) | 12 |
| C[C@@H]1C[C@H](N2CCC3(CC2)COc2c3ccc3c2CN(C2CCC(=O)NC2=O)C3=O)CCN1C(=O)C1CCN(c2ccc([C@@H]3c4ccc(O)cc4CC[C@@H]3c3ccccc3)cc2)CC1 (stereo partly drawn) | 36 |
| O=C1CCC(N2Cc3c(ccc4c3OC3(CC4)CCN(C4CCN(C5CN(c6ccc([C@@H]7c8ccc(O)cc8CC[C@@H]7c7ccccc7)cc6)C5)CC4)CC3)C2=O)C(=O)N1 (stereo partly drawn) | -31 |

(1) O=C1CCC(N2Cc3c(ccc4c3OCC43CCN(c4ccc(C(=O)N5CCN(c6ccc([C@@H]7c8ccc(O)cc8CC[C@@H]7c7ccccc7)cc6)CC5)nc4)CC3)C2=O)C(=O)N1 (stereo partly drawn)
(2) O=C1CCC(N2Cc3c(ccc4c3OCC43CCN(C4CCC(OC5CCN(c6ccc([C@@H]7c8ccc(O)cc8CC[C@@H]7c7ccccc7)cc6)CC5)CC4)CC3)C2=O)C(=O)N1 (stereo partly drawn)
Returns: the argument ( 1 or 2 ) having the larger Degradation rate (%) of ERα in MCF-7 cells. Reply with the label of the item you choose.
1
(1: 34%, 2: 19%)
